# target of assay: recombinant full-length human prolyl endopeptidase (PREP) (Homo sapiens, UniProt P48147)
# Construct: To recombinant full-length human prolyl endopeptidase (PREP, R&D-Systems, 4308-SE); purchased R&D-Systems 4308-SE
# Sequence (P48147 1-710): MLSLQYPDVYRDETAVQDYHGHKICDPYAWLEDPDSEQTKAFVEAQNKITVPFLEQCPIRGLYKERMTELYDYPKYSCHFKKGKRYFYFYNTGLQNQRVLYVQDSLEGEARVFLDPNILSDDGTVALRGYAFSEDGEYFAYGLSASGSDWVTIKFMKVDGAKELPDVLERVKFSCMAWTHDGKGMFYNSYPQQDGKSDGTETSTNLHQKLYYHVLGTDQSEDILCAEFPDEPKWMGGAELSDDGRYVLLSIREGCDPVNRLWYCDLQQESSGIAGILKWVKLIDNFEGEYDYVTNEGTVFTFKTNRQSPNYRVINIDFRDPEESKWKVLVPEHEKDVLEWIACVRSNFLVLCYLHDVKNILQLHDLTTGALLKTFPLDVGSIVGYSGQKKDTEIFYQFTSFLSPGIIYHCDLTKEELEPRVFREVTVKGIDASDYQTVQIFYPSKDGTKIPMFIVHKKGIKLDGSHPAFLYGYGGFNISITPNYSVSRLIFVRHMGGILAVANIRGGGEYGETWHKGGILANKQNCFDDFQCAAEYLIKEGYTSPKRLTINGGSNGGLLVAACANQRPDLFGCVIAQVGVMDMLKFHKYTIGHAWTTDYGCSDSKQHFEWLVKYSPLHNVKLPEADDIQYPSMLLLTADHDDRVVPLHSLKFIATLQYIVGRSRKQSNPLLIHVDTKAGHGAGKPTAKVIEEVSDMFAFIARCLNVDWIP
# assay name: Biochemical human prolyl endopeptidase (PREP) assay with fluorescently labelled substrate
# cond: substrate Z-Gly-Pro-AMC 50 μM, 32° C., 60 min; some as mean values from multiple independent determinations
We begin with a simple list: items and their reported IC50.
# number only, unit nM dropped from output

Known IC50 results, listed for orientation:
# compound, target of assay, IC50 (nM)
data = [
    ("Cc1ccc(Cn2nc3n(c2=O)[C@H](C(=O)N2CC[S+]([O-])C2)CCC3)cc1 (single isomer, unassigned) [Example 194]", "recombinant full-length human prolyl endopeptidase (PREP) (Homo sapiens, UniProt P48147)", 0.375),
    ("O=C(C1CC(C(F)(F)F)Cc2nn(Cc3ccnc(C(F)(F)F)c3F)c(=O)n21)N1CC(F)C1 (single isomer, unassigned) [Example 254]", "recombinant full-length human prolyl endopeptidase (PREP) (Homo sapiens, UniProt P48147)", 30.5),
    ("O=C(C1C(C(F)(F)F)CCc2nn(Cc3ccnc(C(F)(F)F)c3F)c(=O)n21)N1CC(F)C1 (racemic) [Example 302]", "recombinant full-length human prolyl endopeptidase (PREP) (Homo sapiens, UniProt P48147)", 49.5),
    ("O=C([C@@H]1CCCc2nn(Cc3ccc(F)c(F)c3)c(=O)n21)N1CC(F)C1 [Example 469]", "recombinant full-length human prolyl endopeptidase (PREP) (Homo sapiens, UniProt P48147)", 0.795),
    ("O=C(C1CCCc2nn(Cc3ccc(Cl)nc3)c(=O)n21)N1CCCC1 (single isomer, unassigned) [Example 32]", "recombinant full-length human prolyl endopeptidase (PREP) (Homo sapiens, UniProt P48147)", 1.48),
    ("O=C([C@@H]1CCCc2nn(Cc3ncc(C(F)(F)F)cc3Cl)c(=O)n21)N1CC[C@@H](F)C1 [Example 401]", "recombinant full-length human prolyl endopeptidase (PREP) (Homo sapiens, UniProt P48147)", 3.4),
    ("O=C([C@@H]1CCCc2nn(Cc3cccc(Br)c3)c(=O)n21)N1C[C@@H](F)[C@@H](F)C1 [Example 211]", "recombinant full-length human prolyl endopeptidase (PREP) (Homo sapiens, UniProt P48147)", 0.15),
    ("O=C(C1CC(C(F)(F)F)Cc2nn(Cc3ccc(Cl)cn3)c(=O)n21)N1CC[C@H](F)C1 (single isomer, unassigned) [Example 315]", "recombinant full-length human prolyl endopeptidase (PREP) (Homo sapiens, UniProt P48147)", 1.4),
]

IN: Please supply the value of reported IC50 for the item O=C([C@@H]1CCCc2nn(Cc3ccc(Cl)nc3)c(=O)n21)N1CC(F)C(F)C1 (mixture of isomers) [Example 550]
OUT: 18

IN: Please supply the value of reported IC50 for the item O=C([C@@H]1CCCc2nn(Cc3ccc(Cl)nc3)c(=O)n21)N1CCC2CC21 (single isomer, unassigned) [Example 198]
OUT: 1.03
